Data origin: PubChem BioAssay AID2060889

test system: LG0567-F671-PDC complex spheroids viability; experiment: Anticancer human tumor LG0567-F671-PDC patient-derived lung adenocarcinoma cell line growth inhibition [RAS]; conditions: curve of first compound; second compound 0.1 µM;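 note: luminescence signal used as a proxy for viable cells; spheroids exposed to compound for seven days before readout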

molecule | IC50
CC(C)n1nc(-c2ccc3oc(N)nc3c2)c2c(N)ncnc21 + C=CC(=O)N1CCN(c2nc(OCC3CCCN3C)nc3c(F)c(-c4nc(N)cc(C)c4C(F)(F)F)c(Cl)cc23)C(C)C1 | < 0.316 nM
CCN1CCN(Cc2ccc(Nc3ncc(F)c(-c4cc(F)c5nc(C)n(C(C)C)c5c4)n3)nc2)CC1 + C#Cc1c(F)ccc2cc(O)cc(-c3ncc4c(N5CC6CCC(C5)N6)nc(OCC56CCCN5CC(F)C6)nc4c3F)c12 | > 1000 nM
CC1(O)CCCC1n1c(=O)c(C(F)F)cc2cnc(NC3CCN(S(C)(=O)=O)CC3)nc21 (stereo not given) + C=CC(=O)N1CCN(c2nc(OCC3CCCN3C)nc3c(F)c(-c4nc(N)cc(C)c4C(F)(F)F)c(Cl)cc23)C(C)C1 | < 31.6 nM
CCc1c2c(nc3ccc(O)cc13)-c1cc3c(c(=O)n1C2)COC(=O)[C@]3(O)CC + C=CC(=O)N1CCN(c2nc(OCC3CCCN3C)nc3c(F)c(-c4nc(N)cc(C)c4C(F)(F)F)c(Cl)cc23)C(C)C1 | < 0.949 nM
CCC(CC)c1cc(NC2CCC(N)C2)n2nccc2n1 (stereo not given) + C=CC(=O)N1CCN(c2nc(OCC3CCCN3C)nc3c(F)c(-c4nc(N)cc(C)c4C(F)(F)F)c(Cl)cc23)C(C)C1 | < 31.6 nM
